Biological target: CSF1R (Homo sapiens, UniProt P07333)
Sequence (P07333 20-972): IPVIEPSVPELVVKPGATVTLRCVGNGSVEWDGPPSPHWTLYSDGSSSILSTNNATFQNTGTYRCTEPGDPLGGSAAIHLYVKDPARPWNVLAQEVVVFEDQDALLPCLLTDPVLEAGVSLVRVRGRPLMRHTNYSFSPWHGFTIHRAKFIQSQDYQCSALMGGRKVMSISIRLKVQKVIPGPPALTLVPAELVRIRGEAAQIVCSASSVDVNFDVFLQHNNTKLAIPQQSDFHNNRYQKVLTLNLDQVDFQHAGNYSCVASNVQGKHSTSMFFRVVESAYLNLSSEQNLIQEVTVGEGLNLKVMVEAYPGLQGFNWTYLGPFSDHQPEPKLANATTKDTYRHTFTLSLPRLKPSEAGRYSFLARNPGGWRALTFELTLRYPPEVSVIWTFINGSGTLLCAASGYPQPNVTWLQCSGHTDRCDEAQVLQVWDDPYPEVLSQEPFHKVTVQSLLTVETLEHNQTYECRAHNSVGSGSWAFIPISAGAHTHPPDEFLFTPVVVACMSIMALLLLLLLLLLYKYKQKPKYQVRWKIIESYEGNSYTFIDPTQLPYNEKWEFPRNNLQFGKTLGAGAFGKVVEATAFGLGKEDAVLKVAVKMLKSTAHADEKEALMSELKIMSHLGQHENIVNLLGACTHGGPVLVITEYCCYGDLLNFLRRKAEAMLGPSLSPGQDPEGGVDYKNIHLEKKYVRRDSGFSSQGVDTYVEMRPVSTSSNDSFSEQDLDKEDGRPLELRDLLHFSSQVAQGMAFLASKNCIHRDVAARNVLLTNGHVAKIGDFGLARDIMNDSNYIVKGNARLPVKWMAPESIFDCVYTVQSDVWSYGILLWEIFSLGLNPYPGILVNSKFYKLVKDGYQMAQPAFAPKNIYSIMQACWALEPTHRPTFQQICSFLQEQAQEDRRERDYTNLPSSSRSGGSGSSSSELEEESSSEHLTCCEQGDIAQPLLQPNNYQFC
Experiment: Cellular CSF1R inhibition ELISA (p-CSF1R, M-CSF-induced) using THP-1 cells
Excerpt: The normal proto-oncogene c-fms encodes the macrophage growth factor (M-CSF, also known as CSF1) receptor involved in growth, survival, and differentiation along the monocyte-macrophage lineage. THP-1 cells act as a model for human monocytes. It confirms that an increased phosphorylation of CSF1R (p-CSF1R) can be observed, when induced by CSF1R ligand, CSF1. The THP-1 cells should be maintained from 5×10^5 to 1×10^6 cells/ml in the cell culture flask. […]
measured.quantity: IC50

molecule	result
CCCn1cc(NCCC(F)(F)F)c(C(=O)Nc2ccc(Oc3ccnc4cc(OC)c(OC)cc34)cn2)n1	< 0.5 µM
COc1cc2nccc(Oc3ccc(NC(=O)c4nn(C5CCNC5)cc4OCC(F)(F)F)cn3)c2cc1OC (stereo not shown)	≥ 1 µM
COc1cc2nccc(Oc3ccc(NC(=O)c4nn(C5CCCC5)cc4OCC(F)(F)F)cc3C)c2cc1OC	0.5 to 1 µM
COc1cc2nccc(Oc3ccc(NC(=O)c4nn(CCO)cc4OCC(F)(F)F)c(F)c3)c2cc1OC	0.5 to 1 µM

Origin of measurements: patent US12162858B2
